Value source: ChEMBL document CHEMBL1649522

assay comment: Primary phase half life in healthy human at […], po administered as single dose
Type: ADME, organism-based
Set-up: route oral
cond: in vivo

{"compound": "Cc1nnc(C(=O)NC(C)(C)c2nc(C(=O)NCc3ccc(F)cc3)c(O)c(=O)n2C)o1 [RALTEGRAVIR]", "half-life (h)": 1.07}

* * *

assay comment: Cmax in healthy human at […], po BID for 14 days in presence of […], po rifampin
Type: ADME, organism-based
Design: route oral
cond: in vivo
endpoint name: Cmax (nM)

{"smiles notation": "Cc1nnc(C(=O)NC(C)(C)c2nc(C(=O)NCc3ccc(F)cc3)c(O)c(=O)n2C)o1", "test value": 1950}

* * *

assay comment: Cmin in healthy human at […], po BID for 4 days after 12 hrs
Assay type: ADME, organism-based
Set-up: route oral
cond: in vivo, read-out: Cmin

{"smiles notation": "Cc1nnc(C(=O)NC(C)(C)c2nc(C(=O)NCc3ccc(F)cc3)c(O)c(=O)n2C)o1", "concentration at 12 h / nM": 92.5}

* * *

assay comment: Cmin in healthy human at […], po BID for 14 days after 12 hrs in presence of […], po rifampin
Format: ADME, organism-based
cond: in vivo, read-out: Cmin

{"compound": "Cc1nnc(C(=O)NC(C)(C)c2nc(C(=O)NCc3ccc(F)cc3)c(O)c(=O)n2C)o1 [RALTEGRAVIR]", "unit tag": "nM", "concentration at 12 h": 43.5}
